TEST_SUMMARY: Cytotoxicity against human HepG2 cells assessed as reduction in cell viability incubated for 24 hrs by MTT assay
Type: toxicity, cell-based
REPORTED_PROPERTY: IC50 at 24 h

# per-item lookup of IC50 at 24 h; items listed below
1. C(=C\c1cc(OCCCNC2=NCCC2)cc(OCCCNC2=NCCC2)c1)/c1ccc(/C=C/c2cc(OCCCNC3=NCCC3)cc(OCCCNC3=NCCC3)c2)cc1.CC(=O)O.CC(=O)O.CC(=O)O.CC(=O)O
2. CC(=O)O.CC(=O)O.CC(=O)O.CC(=O)O.CCCN(CCCOc1cc(/C=C/c2ccc(/C=C/c3cc(OCCCN(CCC)C(=N)C4CC4)cc(OCCCN(CCC)C(=N)C4CC4)c3)cc2)cc(OCCCN(CCC)C(=N)C2CC2)c1)C(=N)C1CC1
3. CC(=O)O.CC(=O)O.CC(=O)O.CC(=O)O.CN(CCCOc1cc(/C=C/c2ccc(/C=C/c3cc(OCCCN(C)C(=N)C4CC4)cc(OCCCN(C)C(=N)C4CC4)c3)cc2)cc(OCCCN(C)C(=N)C2CC2)c1)C(=N)C1CC1
4. CC(=O)O.CC(=O)O.CC(=O)O.CC(=O)O.CCC(=N)N(CCCOc1cc(/C=C/c2ccc(/C=C/c3cc(OCCCN(C(=N)CC)C4CC4)cc(OCCCN(C(=N)CC)C4CC4)c3)cc2)cc(OCCCN(C(=N)CC)C2CC2)c1)C1CC1
5. CC(=O)O.CC(=O)O.CC(=O)O.CC(=O)O.CCC(=N)NCCCOc1cc(/C=C/c2ccc(/C=C/c3cc(OCCCNC(=N)CC)cc(OCCCNC(=N)CC)c3)cc2)cc(OCCCNC(=N)CC)c1
6. CC(=O)O.CC(=O)O.CC(=O)O.CC(=O)O.N=C(NCCCOc1cc(/C=C/c2ccc(/C=C/c3cc(OCCCNC(=N)C4CC4)cc(OCCCNC(=N)C4CC4)c3)cc2)cc(OCCCNC(=N)C2CC2)c1)C1CC1

Completion:
1. 1020 µg/mL
2. 16 µg/mL
3. 1020 µg/mL
4. 128 µg/mL
5. 1020 µg/mL
6. 1020 µg/mL

# per-item lookup of IC50 at 24 h; items listed below
1. C/N=C(/C)NCCCOc1cc(/C=C/c2ccc(/C=C/c3cc(OCCCN/C(C)=N\C)cc(OCCCN/C(C)=N/C)c3)cc2)cc(OCCCN/C(C)=N/C)c1.CC(=O)O.CC(=O)O.CC(=O)O.CC(=O)O
2. CC(=O)O.CC(=O)O.CC(=O)O.CC(=O)O.CCCN(CCCOc1cc(/C=C/c2ccc(/C=C/c3cc(OCCCN(CCC)C(=N)CC)cc(OCCCN(CCC)C(=N)CC)c3)cc2)cc(OCCCN(CCC)C(=N)CC)c1)C(=N)CC

Completion:
["> 1020 µg/mL", "32 µg/mL"]

# per-item lookup of IC50 at 24 h; items listed below
1. CC(=O)O.CC(=O)O.CC(=O)O.CC(=O)O.CCC(=N)N(C)CCCOc1cc(/C=C/c2ccc(/C=C/c3cc(OCCCN(C)C(=N)CC)cc(OCCCN(C)C(=N)CC)c3)cc2)cc(OCCCN(C)C(=N)CC)c1
2. CC(=O)O.CC(=O)O.CC(=O)O.CC(=O)O.N=C(CC1CC1)NCCCOc1cc(/C=C/c2ccc(/C=C/c3cc(OCCCNC(=N)CC4CC4)cc(OCCCNC(=N)CC4CC4)c3)cc2)cc(OCCCNC(=N)CC2CC2)c1

Completion:
["> 1020 µg/mL", "256 µg/mL"]
